# assay_overview: Concentration to inhibit growth of normal rat K-ras-transformed cells (KNRK 5.2 cells) after 72 hr exposure
# Type: functional
# key: entry, value: IC50
API: value field is a number in µM; no unit string.

{"structure": "C[C@@H]1C[C@H]2O[C@@H]2\\C=C/C=C/C(=N\\OCC(=O)N2CCCCCC2)Cc2c(Cl)c(O)cc(O)c2C(=O)O1", "IC50 / µM": 0.0064}

Field: next compound
query: Entry `C[C@@H]1C[C@H]2O[C@@H]2\C=C/C=C/C(=N\OCC(=O)N2CCCC2)Cc2c(Cl)c(O)cc(O)c2C(=O)O1` has what IC50?
result: 0.039

---

# tgt: Proto-oncogene tyrosine-protein kinase Src (Rattus norvegicus, UniProt Q9WUD9)
# assay_overview: Inhibition of v-Src tyrosine kinase autophosphorylation in SR3Y1 cells after 15 hr exposure
# key: entry, value: IC50

{"structure": "CCN(CC)c1ccc(NC(=O)CO\\N=C2/C=C/C=C\\[C@H]3O[C@@H]3C[C@@H](C)OC(=O)c3c(O)cc(O)c(Cl)c3C2)cc1", "measured": "< 10 nM"}
{"structure": "CCOCCNC(=O)CO\\N=C1/C=C/C=C\\[C@H]2O[C@@H]2C[C@@H](C)OC(=O)c2c(O)cc(O)c(Cl)c2C1", "measured": "> 1000 nM"}
{"structure": "C[C@@H]1C[C@H]2O[C@@H]2\\C=C/C=C/C(=N\\OCC(=O)NCCc2cccn2C)Cc2c(Cl)c(O)cc(O)c2C(=O)O1", "measured": "> 1000 nM"}

Field: next compound
query: Entry `C[C@@H]1C[C@H]2O[C@@H]2\C=C/C=C/C(=N\OCC(=O)NCCO)Cc2c(Cl)c(O)cc(O)c2C(=O)O1` has what IC50?
result: > 1000 nM

---

# assay_overview: Concentration to inhibit growth of v-src-transformed cells (SR-3Y1 cells) after 72 h exposure
# Type: functional
# condition_details: Rattus norvegicus, SR3Y1, 72 h
Please assign No whenever IC50 is at or above 200 nM, and Yes whenever it is below.

Some entries whose results are on file:
{"structure": "C[C@@H]1C[C@H]2O[C@@H]2\\C=C/C=C/C(=N\\OCC(=O)N2CCC(O)CC2)Cc2c(Cl)c(O)cc(O)c2C(=O)O1", "category": "No"}
{"structure": "C[C@@H]1C[C@H]2O[C@@H]2\\C=C/C=C/C(=N\\OCC(=O)Nc2ccccc2)Cc2c(Cl)c(O)cc(O)c2C(=O)O1", "category": "Yes"}
{"structure": "C[C@@H]1C[C@H]2O[C@@H]2\\C=C/C=C/C(=N\\OCC(=O)NCCO)Cc2c(Cl)c(O)cc(O)c2C(=O)O1", "category": "No"}
{"structure": "C[C@@H]1C[C@H]2O[C@@H]2/C=C\\C=C\\C(=O)Cc2c(Cl)c(O)cc(O)c2C(=O)O1", "category": "Yes"}
{"structure": "C[C@@H]1C[C@H]2O[C@@H]2\\C=C/C=C/C(=N\\OCC(=O)N2CCN(C)CC2)Cc2c(Cl)c(O)cc(O)c2C(=O)O1", "category": "No"}
{"structure": "COC(=O)CNC(=O)CO\\N=C1/C=C/C=C\\[C@H]2O[C@@H]2C[C@@H](C)OC(=O)c2c(O)cc(O)c(Cl)c2C1", "category": "No"}
{"structure": "CCOCCNC(=O)CO\\N=C1/C=C/C=C\\[C@H]2O[C@@H]2C[C@@H](C)OC(=O)c2c(O)cc(O)c(Cl)c2C1", "category": "Yes"}

Next item in the queue.
query: Criterion: IC50 strictly below 200 nM. Is it met by `C[C@@H]1C[C@H]2O[C@@H]2\C=C/C=C/C(=N\OCC(=O)NC2CCCCC2)Cc2c(Cl)c(O)cc(O)c2C(=O)O1` ?
result: Yes
